Origin of the recorded values: patent US20180086841A1

Target: T1, human CD27 (human, UniProt P26842 21-260)
T1 construct: also called hCD27; HsCD27
Experiment: flow cytometry MFI, CD4+ T cells of human PBMC, N=2 donors
Reported EC50 by item:
Measured property: EC50 (nM)

• hCD27.131A VH8VL8 huIgG1 (antibody, V domains shown) VH: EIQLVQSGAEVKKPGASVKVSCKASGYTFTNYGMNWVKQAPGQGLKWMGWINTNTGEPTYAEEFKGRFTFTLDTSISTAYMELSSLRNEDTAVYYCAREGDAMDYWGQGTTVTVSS VL: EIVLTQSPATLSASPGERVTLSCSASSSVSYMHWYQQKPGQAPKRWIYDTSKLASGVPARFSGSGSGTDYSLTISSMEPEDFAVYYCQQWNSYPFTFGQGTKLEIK = 0.135
• hCD27.131A VH6VL7 huIgG1 (antibody, V domains shown) VH: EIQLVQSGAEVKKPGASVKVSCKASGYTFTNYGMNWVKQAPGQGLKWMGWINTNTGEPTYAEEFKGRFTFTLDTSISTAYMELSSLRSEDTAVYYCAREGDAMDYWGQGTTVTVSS VL: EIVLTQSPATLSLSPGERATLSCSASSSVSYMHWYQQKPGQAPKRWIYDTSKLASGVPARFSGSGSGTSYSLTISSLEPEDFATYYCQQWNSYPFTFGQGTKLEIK = 0.123
